List of solvation free energy, 298 K values.
Assay: solvent given as SMILES
Details: in O
reported-endpoint: solvation free energy, 298 K (kcal/mol)

INSERT INTO measurements (smi, reported_endpoint, readout_units, value_measured) VALUES
  ('Nc1ccc(S(=O)(=O)Nc2nccs2)cc1', 'solvation free energy, 298 K', 'kcal/mol', -18.2),
  ('COP(=O)(OC)OC', 'solvation free energy, 298 K', 'kcal/mol', -8.7),
  ('CC(C)SC(C)C', 'solvation free energy, 298 K', 'kcal/mol', -1.21),
  ('O=C(O)c1ccc(I)cc1', 'solvation free energy, 298 K', 'kcal/mol', -7.96),
  ('ClCC(Cl)Cl', 'solvation free energy, 298 K', 'kcal/mol', -1.99),
  ('C#CCCCCC', 'solvation free energy, 298 K', 'kcal/mol', 0.59),
  ('C=C(C)C1=CC=C(C)CC1', 'solvation free energy, 298 K', 'kcal/mol', -1.35),
  ('O=C(O)c1cccc2ccccc12', 'solvation free energy, 298 K', 'kcal/mol', -9.04),
  ('CN(C)CCC=C1c2ccccc2CCc2ccccc21', 'solvation free energy, 298 K', 'kcal/mol', -7.43),
  ('CCCCCCCC(C)=O', 'solvation free energy, 298 K', 'kcal/mol', -2.5),
  ('N#Cc1cccnc1', 'solvation free energy, 298 K', 'kcal/mol', -6.75);

###

# maps each entry to its solvation free energy, 298 K
Experiment: solvent given as SMILES
Conditions: in CCCCCCCC
reported-endpoint: solvation free energy, 298 K (kcal/mol)

INSERT INTO results (compound, readout_units, value_measured) VALUES
  ('CCCCCC', 'kcal/mol', -3.92),
  ('Oc1ccccc1O', 'kcal/mol', -6.04),
  ('CCC(C)CCO (stereo not drawn)', 'kcal/mol', -4.82),
  ('Oc1ccc(Cl)cc1Cl', 'kcal/mol', -6.82),
  ('CCI', 'kcal/mol', -3.66),
  ('CCCCCOC(C)=O', 'kcal/mol', -5.42),
  ('CC(O)CC(C)(C)C (stereo not drawn)', 'kcal/mol', -5.41),
  ('CC(C)CCCO', 'kcal/mol', -4.84),
  ('CC(C)(c1ccc(O)cc1)c1ccc(O)cc1', 'kcal/mol', -12.9),
  ('Oc1cccc(O)c1', 'kcal/mol', -5.85),
  ('c1ccc2c(c1)Sc1ccccc1S2', 'kcal/mol', -11.4),
  ('c1ccc(-c2ccccc2)cc1', 'kcal/mol', -8.53),
  ('CCCCCCO', 'kcal/mol', -4.99),
  ('CCCCCCCCC', 'kcal/mol', -5.98),
  ('CCCCCC=O', 'kcal/mol', -4.76),
  ('CC(=O)CC(C)C', 'kcal/mol', -4.34),
  ('c1ccc2cc3ccccc3cc2c1', 'kcal/mol', -10.2),
  ('Oc1ccc(Cl)cc1', 'kcal/mol', -6.88);

###

Assay: solvent given as SMILES
Conditions: in O
Group membership follows solvation free energy, 298 K per the scheme Low: < -4 kcal/mol; Medium: ≥ -4 kcal/mol and < -1 kcal/mol; High: ≥ -1 kcal/mol

INSERT INTO results (compound, label) VALUES
  ('CC(C)CBr', 'High'),
  ('Clc1ccc(Cl)c(Cl)c1Cl', 'Medium'),
  ('Nc1ccccc1Cl', 'Low'),
  ('c1ccc2cc3ccccc3cc2c1', 'Low'),
  ('COC(=O)c1ccc(N(C)C)cc1', 'Low'),
  ('C=CC(C)(CCC=C(C)C)OC=O (stereo not drawn)', 'Medium'),
  ('COc1cccc(C=O)c1O', 'Low'),
  ('CI', 'High'),
  ('CC1(C)CCCC2(C)C3CC4C(C31)C42C (stereo not drawn)', 'High'),
  ('Cc1ccc(C(C)C)cc1', 'High'),
  ('O=C(c1ccccc1)N(O)c1ccccc1', 'Low');
